The reported measurements were obtained from patent US20260152557A1.

Kindly supply the reported pKd values for the records listed here.
Study target: T1, human CD3εδ-Fc heterodimer (Hu CD3ε Fc / CD3δ Fc-HIS) (human, UniProt P04234 22-100)
T1 construct: range 22-100; Produced in HEK 293 cells with a heterologous signal peptide; heterodimer purified by Ni Sepharose and Mono Q; also called Hu CD3εδ Fc heterodimer; CD3εδ Fc-HIS heterodimer; not shown: Fc-HIS part of CD3δ Fc-HIS
T1 sequence (chain, as listed by the source mutant, form in doubt, chain 1 of 2): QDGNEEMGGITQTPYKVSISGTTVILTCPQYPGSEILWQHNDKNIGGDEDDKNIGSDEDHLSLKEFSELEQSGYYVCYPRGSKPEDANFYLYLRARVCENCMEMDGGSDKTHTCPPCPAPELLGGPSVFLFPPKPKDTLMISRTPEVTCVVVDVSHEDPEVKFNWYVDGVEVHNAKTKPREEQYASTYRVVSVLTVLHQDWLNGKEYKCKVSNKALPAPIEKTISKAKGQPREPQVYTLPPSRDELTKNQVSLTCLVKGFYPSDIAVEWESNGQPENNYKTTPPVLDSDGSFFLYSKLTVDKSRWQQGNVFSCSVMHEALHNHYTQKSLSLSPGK
T1 sequence (P04234 22-100, stated change not applied, form in doubt, chain 2 of 2): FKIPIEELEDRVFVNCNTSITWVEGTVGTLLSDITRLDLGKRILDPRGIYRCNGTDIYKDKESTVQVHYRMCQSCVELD
Experiment summary: SPR (Biacore 8K), yeast-produced Fab, monovalent, pH 7.4
Note on units: pKd is unitless, being -log10 of a concentration expressed in mol/L.

Give reported pKd value for Fab of ADI-79843 (Antibody No. 8) (Fab, V domains shown, Fab made by papain digestion of the yeast-produced human IgG1; also called Antibody No. 8 Fab; ADI-79843 Fab) VH: QVQLVQSGAEVKKPGASVKVSCKASGFNIKDYYMHWVRQAPGQRLEWMGWIDLENANTIYDAKFQGRVTITRDTSASTAYMELSSLRSEDTAVYYCARDAYHRYFYDVWGQGTLVTVSS VL: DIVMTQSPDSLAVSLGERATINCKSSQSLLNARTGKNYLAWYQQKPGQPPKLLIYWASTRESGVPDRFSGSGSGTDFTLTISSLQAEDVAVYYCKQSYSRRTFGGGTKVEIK
8.23

Give reported pKd value for Fab of ADI-79845 (Antibody No. 11) (Fab, V domains shown, Fab made by papain digestion of the yeast-produced human IgG1; also called Antibody No. 11 Fab; ADI-79845 Fab) VH: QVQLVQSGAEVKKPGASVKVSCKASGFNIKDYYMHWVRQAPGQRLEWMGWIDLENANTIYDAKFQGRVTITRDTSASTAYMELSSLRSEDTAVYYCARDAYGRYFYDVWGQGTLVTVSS VL: DIVMTQSPDSLAVSLGERATINCKSSQSLLNARTGKNYLAWYQQKPGQPPKLLIYWASTRESGVPDRFSGSGSGTDFTLTISSLQAEDVAVYYCKQSYSHRTFGGGTKVEIK
8.07

Give reported pKd value for Fab of ADI-26906 (Antibody No. 1) (Fab, V domains shown, Fab made by papain digestion of the human IgG1 (yeast- or CHO-produced); also called Antibody No. 1 Fab; ADI-26906 Fab) VH: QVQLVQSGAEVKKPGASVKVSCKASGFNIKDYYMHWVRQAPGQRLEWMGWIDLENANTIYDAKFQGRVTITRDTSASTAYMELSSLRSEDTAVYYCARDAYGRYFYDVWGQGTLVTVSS VL: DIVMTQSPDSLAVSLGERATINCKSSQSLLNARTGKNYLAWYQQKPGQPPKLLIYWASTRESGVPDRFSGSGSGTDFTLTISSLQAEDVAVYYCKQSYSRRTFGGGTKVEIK
8.62
